Sourced from PubChem BioAssay (NCI)

Assign TGI to each entry below.
test system: OVCAR-4 ovarian; assay: NCI tumour cell line growth inhibition, 48 h

Could you report TGI for every entry in the following list?
1. Cc1ccc(-c2c(C#N)c(-c3ccccc3)n(NS(=O)(=O)c3ccccc3)c(=O)c2C#N)cc1
2. C[C@]12CC[C@H](O)CC1=CC[C@@H]1[C@@H]2CC[C@]2(C)C(c3cccnc3)=CC[C@@H]12
3. CCCCCCCCCCCCCCCCCCNc1ccn(C2OC(COP(=O)(O)OCC3OC(n4ccc(NC(=O)CCCCCCCCCCCCCCCCC)nc4=O)C(OC(C)=O)C3OC(C)=O)C(OC(C)=O)C2OC(C)=O)c(=O)n1 (stereo not given)
4. O=C1c2c(c3c4ccccc4n(CCCCCCBr)c3c3[nH]c4ccccc4c23)C(=O)N1O
5. O=NN(Cc1ccc(Cl)cc1)C(C(=O)O)c1ccccc1 (stereo not given)
6. CCN1CC2=C(NC(=S)NC2c2ccc(Cl)cc2)/C(=C/c2ccc(Cl)cc2)C1 (stereo not given)
7. CC(C)Sc1nc(C#N)cc2c1CCCC2

1: > 100 µM; 2: > 100 µM; 3: > 100 µM; 4: 23.4 µM; 5: > 100 µM; 6: > 100 µM; 7: > 100 µM

Dear reader, for each entry below, please note its TGI.
1. CC(=O)OCC(C)C1=C(O)C(=O)C2(C)C/C=C(/C)CC/C=C(\C)CCC(O)C(C)CCC12 (stereo not given)
2. O=C1OCc2c1cc1ccc(O)c(OC3OC(CO)C(O)C(O)C3O)c1c2-c1ccc2c(c1)OCO2 (stereo not given)

["37 µM", "> 100 µM"]

For every listed record, write down its TGI.
1. Cc1nc2cccc([N+](=O)[O-])c2c(NCCCN(C)C)c1C
2. O=C1/C(=C/c2ccc(Br)cc2)C=C(c2ccccc2)N1CCc1ccccc1

1: > 100 µM; 2: 3.13 µM

----------
Would you mind telling me the reported TGI of each entry?
system: MDA-MB-435; assay: NCI tumour cell line growth inhibition, 48 h

In the examples that follow, each entry is paired with its recorded TGI.
                               smiles_input  system_tested    result
0  COc1ccc(-n2c(=O)c3[nH]cnc3n(-c3ccc(OC)cc3)c2=S)cc1     MDA-MB-435  > 100 µM
1  NC(=O)N/N=C(\Cc1nc2ccc(Cl)cc2[nH]c1=O)C(=O)Nc1ccc(Cl)cc1Cl     MDA-MB-435  > 100 µM

Lab note: next compound to report on.
Quick check: TGI of CN1CCN(Cc2ccc(NC(=O)c3cncc(C#Cc4cnc(N)c5ccc(C#N)cc45)c3)cc2C(F)(F)F)CC1 ?
0.675 µM

----------
system: UACC-62 melanoma; experiment: NCI tumour cell line growth inhibition, 48 h
measured-parameter: TGI (µM)
One number for each entry, in µM.

                               smiles_input  numeric_result
0        CCCCCCCCCCCC(=O)CC(=O)c1c(O)cccc1O            90.1
1  COc1cccc(/C=N/NC(=O)c2ccccc2Nc2ccnc(C(F)(F)F)c2)c1O            10.6
2  CC(C)c1ccc2[nH]c(O)c(-c3[nH]c4ccccc4c3N=O)c2c1            20.6

Give its TGI value. Item: O=C1/C(=C/c2ccc(Cl)cc2Cl)N=C(c2ccccc2)N1Cc1ccco1
41.6

----------
system: T-47D breast; test: NCI tumour cell line growth inhibition, 48 h
Decision: TGI >= 30 µM yields Y, all other cases yield N.

Would you say Cc1nc2c(sc(=S)n2-c2ccccc2)c2nc3ncccc3n12 shows TGI at minimum 30 µM?
Y

Could you tell me if the measured TGI of NC(C(F)(F)F)(C(F)(F)F)P(=O)(Cc1ccccc1)Cc1ccccc1 reaches 30 µM or more?
Y

Kindly determine if TGI recorded for CNC(=O)OCc1c(COC(=O)NC)c(-c2ccc(Cl)c(Cl)c2)n2c1SCC2 is above or exactly 30 µM.
Y

// inclusive: TGI at least 30 µM? input: COC(=O)C1(C(=O)OC)CC2=C(S(=O)(=O)c3ccccc3)C[C@H](S(=O)(=O)c3ccccc3)[C@H]2C1
Y

Record CC(C)OP(=O)(OC(C)C)c1c(Nc2ccccc2)n[nH]c1N ; criterion: TGI no lower than 30 µM. Met?
Y

Decide: is the reported value of TGI for COc1ccc(-c2cc(-c3ccco3)c(C#N)c(=S)n2C2OC(COC(C)=O)C(OC(C)=O)C(OC(C)=O)C2OC(C)=O)cc1 (stereo not given) equal to or greater than 30 µM?
N

Entry Cc1ccc(C(=O)Nc2ccc(CP(=O)(O)O)cc2CP(=O)(O)O)cc1NC(=O)c1cccc(N)c1 : is its TGI no less than 30 µM?
Y

Textbook exercise: given the entry O=C(CI)NC1Oc2ccccc2-c2oc(=O)c(-c3ccccc3)cc21 (stereo not given) , state whether its TGI is greater than or equal to 30 µM.
N

I'd appreciate it if you could say whether COc1ccc(/C(=C2\O[C@@H]([C@H]3COC(C)(C)O3)[C@H]3OC(C)(C)O[C@@H]23)c2cc(OC)c(OC)c(OC)c2)cc1O has TGI at least equal to 30 µM.
Y

TGI >= 30 µM for COc1cc2c3c(n(C)c(=O)c2cc1OC)-c1cc2c(cc1/C3=C\CCCN1C(=O)c3ccccc3C1=O)OCO2 ?
Y

Given CN(C)CCCOC(=O)C(c1ccccc1)C1(O)CCSCC1 (stereo not given) , state whether its TGI is at least 30 µM.
Y

Is TGI at least 30 µM? Consider NCC(=O)NS(=O)(=O)OC[C@H]1O[C@@H](n2cnc3c(N)ncnc32)[C@H](O)[C@@H]1O
N

Does N#Cc1ccc(C#Cc2ccccc2C#CCCCCO)cc1 have a reported TGI of at least 30 µM?
N

Say whether Cc1ccc(-c2c3c([nH]c(=O)c2C#N)-c2cc(F)ccc2OC3)cc1 shows TGI of 30 µM or more.
Y

# check: TGI of CN(CCC#N)c1ccc(/C=C2\SC(=S)NC2=O)cc1 is greater than or equal to 30 µM
Y

Does the compound O=[N+]([O-])/C=C\c1ccc(Cl)c(Cl)c1 have recorded TGI that is 30 µM or more?
N

Does the reported TGI for O=C1/C(=C/c2ccc(Br)cc2)C=C(c2ccccc2)N1CCc1ccccc1 fall at or above the 30 µM mark?
Y

// inclusive: TGI at least 30 µM? input: COc1ccc(C2=NN(C(=O)c3cc(OC)c(OC)c(OC)c3)C(c3ccc(C#N)cc3)C2)cc1OC (stereo not given)
Y

Reported TGI at or above 30 µM? CC(C)=CCOC(=O)C(C)=[N+]=[N-]
Y

----------
tested on: IGROV1 ovarian; experiment: NCI tumour cell line growth inhibition, 48 h
measured-parameter: TGI

Sample records with TGI:
compound	result
CC1CCC2(C(=O)O)CCC3(C)C(=CCC4C5(C)CC(O)C(O)C(C)(CO)C5C(O)CC43C)C2C1C (configuration not stated)	35.9 µM
N.N.N.O=[N+]([O-])[O-].O=[N+]([O-])[O-].O=[N+]([O-])[O-].O=[N+]([O-])[O-].[Co+3]	> 100 µM
O=C(O)CC/C(=N\Nc1nsc2ccccc12)c1ccccc1	> 100 µM
O=C1CNCCCN2CCN(CCCNCC(=O)Nc3ccc(cc3)S(=O)(=O)c3ccc(cc3)NC(=O)CNCCCN3CCN(CCCNCC(=O)Nc4ccc(cc4)S(=O)(=O)c4ccc(cc4)N1)CC3)CC2	> 69.7 µM
CSc1cc(N=Nc2nc3ccccc3s2)c2ccccc2c1O	24.3 µM

Each of the following entries comes with a recorded value; kindly state TGI for each.
1. CN(C)CCCOC(=O)C(c1ccccc1)C1(O)CCSCC1 (configuration not stated)
2. CCCCCCCCCCCC(=O)CC(=O)c1c(O)cccc1O
3. CCCCC(=O)OCC1OC(n2cnc3c(=S)nc[nH]c32)C(OC(=O)CCCC)C1OC(=O)CCCC (configuration not stated)
4. COc1cc2c(cc1OC)C1=Cc3cc(OC)c(OC)cc3C(C)N1C=C2 (configuration not stated)
5. CSc1ccc(C2=NN(C(C)=O)C(c3cc(C)cs3)C2)cc1 (configuration not stated)
6. CCNCCNc1cc(-c2ccc(C(=O)OC)cc2)c(C#N)c2nc3ccccc3n12

1: > 100 µM; 2: 36.4 µM; 3: > 39.4 µM; 4: > 100 µM; 5: > 100 µM; 6: > 100 µM

----------
test system: HCC-2998 colon; test: NCI tumour cell line growth inhibition, 48 h
Response key: class 1 means TGI >= 30 µM; class 0 means TGI < 30 µM.

Record excerpt, results attached:
>>> df
                                   compound   system_tested  qualitative_label
0  COC(=O)CC(=O)C[P+](c1ccccc1)(c1ccccc1)c1ccccc1  HCC-2998 colon            class 1
1  Cc1nn(CN2CCN(C)CC2)c(=S)n1/N=C/c1cccc2ccccc12  HCC-2998 colon            class 1
2  CCCc1cc(=O)c2c(C)c3[nH]c4ccc(Cl)cc4c3c(C)c2[nH]1  HCC-2998 colon            class 0
3  COc1ccc(C2=NN(C(=O)c3cc(OC)c(OC)c(OC)c3)C(c3ccc(C#N)cc3)C2)cc1OC (stereo not drawn)  HCC-2998 colon            class 0
4  CN(C)CCC(=O)N1C/C(=C/c2ccccc2)C(=O)/C(=C\c2ccccc2)C1  HCC-2998 colon            class 0
5  Cc1nc2cccc([N+](=O)[O-])c2c(NCCCN(C)C)c1C  HCC-2998 colon            class 1
6              Nc1nc2cc3nc(N)c(N)nc3cc2nc1N  HCC-2998 colon            class 1
7  C=C(C(=O)C(=O)Oc1ccc(Cl)cc1)C(=O)c1ccc(C)cc1  HCC-2998 colon            class 1
8  CC[C@]1(Cc2ccc(OC)c(OC)c2)CN(S(=O)(=O)c2ccc(C)cc2)C[C@@H]1OC(C)=O  HCC-2998 colon            class 1
9  Cc1nc2c(sc(=S)n2-c2ccccc2)c2nc3ncccc3n12  HCC-2998 colon            class 1

Please indicate if the recorded TGI for O=C(O)CC/C(=N\Nc1nsc2ccccc12)c1ccccc1 meets or exceeds 30 µM.
class 1

Is reported TGI greater than or equal to 30 µM here: CN(C)/N=N/c1nc2c(c(=O)n(C)c(=O)n2C)n1C
class 1
